experiment: non-specific 3'UTR reporter inhibition in Clone20-Shn3RL – cell-based, Renilla luciferase, cherry-picked, counter-screen for Shn3 inhibitor project, dose response (AID 624133); format: functional
Activity calls are given as the source filed them.
MEASURED_QUANTITY: AC50

Using the record for CC(C)(C)c1ccc(-n2ncc3c2CCCC3NC(=O)C2(C(N)=O)CC2)cc1 (stereo not given) , report its AC50. 13.4 µM (active)

----------
target: Glyceraldehyde-3-phosphate dehydrogenase (Homo sapiens, UniProt P04406)
Sequence (P04406 whole entry): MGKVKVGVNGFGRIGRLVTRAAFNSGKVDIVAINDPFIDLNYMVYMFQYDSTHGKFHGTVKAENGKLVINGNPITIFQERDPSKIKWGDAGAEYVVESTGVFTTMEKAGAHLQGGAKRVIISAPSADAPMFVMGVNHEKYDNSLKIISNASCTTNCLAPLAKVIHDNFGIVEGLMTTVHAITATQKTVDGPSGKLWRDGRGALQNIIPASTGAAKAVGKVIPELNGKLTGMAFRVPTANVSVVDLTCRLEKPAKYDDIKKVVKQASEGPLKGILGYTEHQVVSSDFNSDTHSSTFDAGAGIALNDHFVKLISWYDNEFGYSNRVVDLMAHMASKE
MEASURED_QUANTITY: IC50

Sample answers from the record:
CC1(C)OC(=O)C(=Cc2ccc(I)o2)C(=O)O1    > 100 µM (not active)
COc1ccccc1N1CCN(C2=C(Cl)C(=O)N(c3ccc(Cl)c(Cl)c3)C2=O)CC1    > 100 µM (not active)
O=C1C(Cl)=C(N2CCOCC2)C(=O)N1c1ccc(Cl)c(Cl)c1    > 100 µM (not active)

Here is the next item to consider.
Need IC50 of `NCCc1c(C(=O)O)[nH]c2ccc(S(N)(=O)=O)cc12` , thanks. > 100 µM (not active)
